TARGET: Acetylcholinesterase (Schizaphis graminum) (UniProt Q9BMJ1)
MEASUREMENT DESCRIPTION: Resistance index, ratio of bimolecular rate constant Ki for AChE in rganophosphate-resistant clone of Schizaphis graminum OR1 to bimolecular rate constant Ki for AChE in organophosphate-susceptible clone of Schizaphis graminum OSS
Entries annotated with measured Ratio
Reply with just the number.

Worked examples, 2 compounds total:
* CCOP(=O)(OCC)SCCSCC [demeton S] | 1.3
* COP(=O)(OC)Oc1ccc([N+](=O)[O-])cc1 [DIMETHYL 4-NITROPHENYL PHOSPHATE] | 2.1

Prompt: Look up Ratio: CCOP(=O)(OCC)Oc1ccc([N+](=O)[O-])cc1 [PARAOXON]
Response: 1.8

Prompt: Need Ratio of CNC(=O)CSP(=O)(OC)OC [Omethoate] , thanks.
Response: 3.8

###

# key: entry, value: Ratio
TARGET: UniProt:Q9BMJ1
MEASUREMENT DESCRIPTION: Resistance index, ratio of bimolecular rate constant Ki for AChE in rganophosphate-resistant clone of Schizaphis graminum OR2 to bimolecular rate constant Ki for AChE in organophosphate-susceptible clone of Schizaphis graminum OSS
API doc: respond with a numeric literal and nothing else, no unit.

Please review the entries below; each comes with its answer.
• CCOP(=O)(OCC)Oc1ccc([N+](=O)[O-])cc1 [PARAOXON] = 2
• COP(=O)(OC)Oc1ccc([N+](=O)[O-])cc1 [DIMETHYL 4-NITROPHENYL PHOSPHATE] = 2.2
• CNC(=O)CSP(=O)(OC)OC [Omethoate] = 3.5

# ---- query compound ----
Prompt: Returns the measured Ratio for the input compound. Input: CCOP(=O)(OCC)SCCSCC [demeton S]
Response: 1.3

###

TARGET: Acetylcholinesterase (Schizaphis graminum, UniProt Q9BMJ1)
Sequence (Q9BMJ1 whole entry): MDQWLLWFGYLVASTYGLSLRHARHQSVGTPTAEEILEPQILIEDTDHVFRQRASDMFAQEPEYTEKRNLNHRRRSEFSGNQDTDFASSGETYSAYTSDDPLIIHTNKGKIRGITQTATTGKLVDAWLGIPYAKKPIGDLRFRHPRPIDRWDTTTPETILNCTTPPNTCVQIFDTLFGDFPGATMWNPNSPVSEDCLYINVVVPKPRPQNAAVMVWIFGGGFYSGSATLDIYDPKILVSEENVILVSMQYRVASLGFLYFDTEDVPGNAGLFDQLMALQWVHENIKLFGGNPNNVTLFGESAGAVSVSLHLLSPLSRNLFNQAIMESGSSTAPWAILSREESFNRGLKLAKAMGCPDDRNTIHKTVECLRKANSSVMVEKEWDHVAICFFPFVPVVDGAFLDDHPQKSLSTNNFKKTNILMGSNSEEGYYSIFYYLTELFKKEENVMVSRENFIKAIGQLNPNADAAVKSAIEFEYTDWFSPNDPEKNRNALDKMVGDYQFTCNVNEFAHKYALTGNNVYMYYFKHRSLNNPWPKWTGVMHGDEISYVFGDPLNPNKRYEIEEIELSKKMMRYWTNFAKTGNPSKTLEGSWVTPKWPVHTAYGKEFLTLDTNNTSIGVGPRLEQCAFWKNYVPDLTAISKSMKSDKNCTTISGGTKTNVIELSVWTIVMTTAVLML
MEASUREMENT DESCRIPTION: Inhibition of AChE in organophosphate-resistant clone of Schizaphis graminum OR2 adult or last-instar nymphs homogenates assessed as bimolecular rate constant pre-incubated with compound for 2 min at 25 degC before addition of ATC and DTNB solution
Measured Ki, listed per entry.
Report as a plain number; the unit M⁻¹ s⁻¹ is understood.

* COP(=O)(OC)Oc1ccc([N+](=O)[O-])cc1 [DIMETHYL 4-NITROPHENYL PHOSPHATE] | 0.0217
* CCOP(=O)(OCC)SCCSCC | 0.0447
* CNC(=O)CSP(=O)(OC)OC [Omethoate] | 0.0222
* CCSCCSP(=O)(OC)OC | 0.0725

# next molecule below
Prompt: Fill in the blank: the reported Ki of CCOP(=O)(OCC)Oc1ccc([N+](=O)[O-])cc1 is ____.
Response: 0.012

###

System: Schizaphis graminum
MEASUREMENT DESCRIPTION: Insecticidal activity against organophosphate-susceptible clone of Schizaphis graminum OSS adult or last-instar nymphs assessed as insect mortality after 8 hr
Assay type: functional
QUANTITY NAME: LC50
State the value, then name its unit.

• CCOP(=S)(OCC)Oc1nc(Cl)c(Cl)cc1Cl = 0.036 µg/mL
• CCOP(=S)(OCC)SCCSCC = 0.16 µg/mL
• COP(=S)(OC)Oc1ccc([N+](=O)[O-])cc1 = 0.031 µg/mL
• CCOP(=S)(OCC)Oc1ccc([N+](=O)[O-])cc1 = 0.2 µg/mL

Prompt: Request body: readout LC50, system Schizaphis graminum, query CNC(=O)CSP(=O)(OC)OC [Omethoate] . Return the value.
Response: 0.21 µg/mL

###

TARGET: Acetylcholinesterase (Schizaphis graminum, UniProt Q9BMJ1)
MEASUREMENT DESCRIPTION: Inhibition of AChE in organophosphate-resistant clone of Schizaphis graminum OR1 adult or last-instar nymphs homogenates assessed as bimolecular rate constant pre-incubated with compound for 2 min at 25 degC before addition of ATC and DTNB solution
QUANTITY NAME: Ki (M⁻¹ s⁻¹)
Give your result in M⁻¹ s⁻¹ as a bare value.

• COP(=O)(OC)Oc1ccc([N+](=O)[O-])cc1 [DIMETHYL 4-NITROPHENYL PHOSPHATE] = 0.0225

Prompt: # get_value(readout='Ki', item= CCOP(=O)(OCC)SCCSCC )
Response: 0.0437

Prompt: Need Ki of CNC(=O)CSP(=O)(OC)OC [Omethoate] , thanks.
Response: 0.0207

Prompt: Given CCSCCSP(=O)(OC)OC , state its recorded Ki.
Response: 0.0685

Prompt: Which measured Ki value corresponds to CCOP(=O)(OCC)Oc1ccc([N+](=O)[O-])cc1 ?
Response: 0.0135

###

TARGET: Acetylcholinesterase (Schizaphis graminum)
MEASUREMENT DESCRIPTION: Inhibition of AChE in organophosphate-susceptible clone of Schizaphis graminum OSS adult or last-instar nymphs homogenates assessed as bimolecular rate constant pre-incubated with compound for 2 min at 25 degC before addition of ATC and DTNB solution
For each record, check the reported Ki: if it is below 0.05 M⁻¹ s⁻¹ write true, else write false.

- CNC(=O)CSP(=O)(OC)OC [Omethoate]: false
- COP(=O)(OC)Oc1ccc([N+](=O)[O-])cc1 [DIMETHYL 4-NITROPHENYL PHOSPHATE]: true
- CCOP(=O)(OCC)SCCSCC [demeton S]: false
- CCSCCSP(=O)(OC)OC [demeton-S-methyl]: false

Prompt: Ki under 0.05 M⁻¹ s⁻¹? Item: CCOP(=O)(OCC)Oc1ccc([N+](=O)[O-])cc1 [PARAOXON]
Response: true

###

Tested on: Schizaphis graminum
MEASUREMENT DESCRIPTION: Resistance index, ratio of LC50 for organophosphate-resistant clone of Schizaphis graminum OR2 adult or last-instar nymphs to LC50 for organophosphate-susceptible clone of Schizaphis graminum OSS adult or last-instar nymphs
Format: functional
Set-up: reference not given here
Returns: string. Value is MET if measured RatioLC50 is below 50, and NOT MET if it is greater than or equal to it.

Use these answered entries as a reference point.
* COP(=S)(OC)Oc1ccc([N+](=O)[O-])cc1 | MET
* CCOP(=S)(OCC)SCCSCC | NOT MET
* CNC(=O)CSP(=O)(OC)OC [Omethoate] | MET
* CCOP(=S)(OCC)Oc1nc(Cl)c(Cl)cc1Cl | NOT MET

// switching to the query molecule
Prompt: Could you please tell me whether RatioLC50 recorded for CCOP(=S)(OCC)Oc1ccc([N+](=O)[O-])cc1 is less than 50?
Response: NOT MET
